system: T1, human tissue factor (TF), membrane-bound on cells (human, UniProt P13726 33-295)
T1 construct: whole, on cells; also called cellular TF
test.summary: FACS on MDA-MB-231 cells (~900.000 TF molecules/cell) [panel MDA-MB-231 cells]
property.label: EC50 (read off the curve)

Prompt line: // EC50 (read off the curve) lookup, key: anti-TF HuMab 109 (antibody, V domains shown, Human monoclonal antibody from HuMab mice) VH: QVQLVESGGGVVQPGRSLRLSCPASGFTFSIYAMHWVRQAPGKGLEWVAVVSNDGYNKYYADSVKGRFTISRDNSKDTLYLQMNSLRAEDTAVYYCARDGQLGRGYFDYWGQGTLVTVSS VL: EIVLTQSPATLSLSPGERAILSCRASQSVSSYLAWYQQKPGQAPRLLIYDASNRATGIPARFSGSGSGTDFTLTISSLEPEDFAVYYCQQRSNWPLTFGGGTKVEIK
Response line: ~0.07 µg/mL
